# subject.of.test: Amine oxidase [flavin-containing] B (Rattus norvegicus, UniProt P19643)
# Sequence (P19643 whole entry): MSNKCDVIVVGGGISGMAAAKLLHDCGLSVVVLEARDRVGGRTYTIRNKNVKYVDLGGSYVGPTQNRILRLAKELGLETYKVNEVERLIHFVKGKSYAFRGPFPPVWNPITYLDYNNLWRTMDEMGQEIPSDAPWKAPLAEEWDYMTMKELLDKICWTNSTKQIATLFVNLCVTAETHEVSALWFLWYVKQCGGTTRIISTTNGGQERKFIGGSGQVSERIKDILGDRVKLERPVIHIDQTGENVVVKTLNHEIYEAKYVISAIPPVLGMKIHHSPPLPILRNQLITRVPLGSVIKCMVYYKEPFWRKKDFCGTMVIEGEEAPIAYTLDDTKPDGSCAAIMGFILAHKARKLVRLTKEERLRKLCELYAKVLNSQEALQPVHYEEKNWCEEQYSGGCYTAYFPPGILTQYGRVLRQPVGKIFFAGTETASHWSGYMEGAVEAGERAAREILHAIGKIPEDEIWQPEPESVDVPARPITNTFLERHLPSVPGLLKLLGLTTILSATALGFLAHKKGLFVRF
Output Met for records whose Ki is lower than 300 nM, Not met for records at or above 300 nM.

Q: Bench note: check whether O=C1CSC(c2ccccc2)CN1 (racemic) shows Ki below 300 nM
A: Not met

Q: Bench note: check whether CCOc1ccc(C2CNCCS2)cc1 (racemic) shows Ki below 300 nM
A: Not met

Q: Bench note: check whether COc1ccc(C2CNCCS2)cc1 (racemic) shows Ki below 300 nM
A: Not met

Q: Bench note: check whether CCCOc1ccc(C2CNCCS2)cc1 (racemic) shows Ki below 300 nM
A: Not met

Q: Bench note: check whether CCCCOc1ccc(C2CNCCS2)cc1 (racemic) shows Ki below 300 nM
A: Met

Q: Bench note: check whether c1ccc(C2CNCCS2)cc1 (racemic) shows Ki below 300 nM
A: Not met

Q: Bench note: check whether C[C@H](N)Cc1ccccc1 [DEXTROAMPHETAMINE] shows Ki below 300 nM
A: Not met

Q: Bench note: check whether O=C1CSC(c2ccc(OCc3ccccc3)cc2)CN1 (racemic) shows Ki below 300 nM
A: Met

Q: Bench note: check whether c1ccc(COc2ccc(C3CNCCS3)cc2)cc1 (racemic) shows Ki below 300 nM
A: Met

---

# subject.of.test: Amine oxidase [flavin-containing] A (Homo sapiens)
# Sequence (P21397 whole entry): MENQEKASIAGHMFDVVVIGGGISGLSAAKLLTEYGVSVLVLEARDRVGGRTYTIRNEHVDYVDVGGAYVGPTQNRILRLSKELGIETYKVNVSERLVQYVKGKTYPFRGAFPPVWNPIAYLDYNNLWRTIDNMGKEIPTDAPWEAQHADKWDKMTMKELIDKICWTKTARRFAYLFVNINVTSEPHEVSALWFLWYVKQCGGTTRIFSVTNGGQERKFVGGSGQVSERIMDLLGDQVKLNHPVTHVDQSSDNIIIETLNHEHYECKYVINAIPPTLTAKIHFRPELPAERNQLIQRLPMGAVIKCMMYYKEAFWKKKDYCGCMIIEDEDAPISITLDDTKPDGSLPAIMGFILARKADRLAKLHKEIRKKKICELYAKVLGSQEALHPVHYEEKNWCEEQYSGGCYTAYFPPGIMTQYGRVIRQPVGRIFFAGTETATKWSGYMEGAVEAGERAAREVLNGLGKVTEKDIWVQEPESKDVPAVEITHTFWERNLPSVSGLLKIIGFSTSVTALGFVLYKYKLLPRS
# experiment.description: Inhibition of human recombinant MAOA by spectrophotometrically
pKi: −log10 of the molar value.
Hi, to clarify the labels: fulfilled covers pKi from 5 upward, not fulfilled covers anything below 5.

Q: # check: pKi of c1ccc(COc2ccc(C3CNCCS3)cc2)cc1 (racemic) is greater than or equal to 5
A: not fulfilled

Q: # check: pKi of c1ccc(C2CNCCS2)cc1 (racemic) is greater than or equal to 5
A: not fulfilled

Q: # check: pKi of C[C@H](N)Cc1ccccc1 is greater than or equal to 5
A: not fulfilled

Q: # check: pKi of COc1ccc(C2CNC(=O)CS2)cc1 (racemic) is greater than or equal to 5
A: not fulfilled

Q: # check: pKi of CCCCOc1ccc(C2CNCCS2)cc1 (racemic) is greater than or equal to 5
A: fulfilled

Q: # check: pKi of COc1ccc(C2CNCCS2)cc1 (racemic) is greater than or equal to 5
A: not fulfilled

Q: # check: pKi of O=C1CSC(c2ccccc2)CN1 (racemic) is greater than or equal to 5
A: not fulfilled

Q: # check: pKi of CCOc1ccc(C2CNC(=O)CS2)cc1 (racemic) is greater than or equal to 5
A: not fulfilled

Q: # check: pKi of O=C1CSC(c2ccc(OCc3ccccc3)cc2)CN1 (racemic) is greater than or equal to 5
A: not fulfilled

Q: # check: pKi of CCCOc1ccc(C2CNC(=O)CS2)cc1 (racemic) is greater than or equal to 5
A: not fulfilled

Q: # check: pKi of CCCOc1ccc(C2CNCCS2)cc1 (racemic) is greater than or equal to 5
A: fulfilled

---

# Species on record: Rattus norvegicus
# experiment.description: Selectivity ratio of Ki for rat MAOA to Ki for rat MAOB
readout.name: Ratio Ki
Number, no unit, nothing else.

Q: Return Ratio Ki (reported value) for this compound: CCCCOc1ccc(C2CNCCS2)cc1 (racemic)
A: 52

Q: Return Ratio Ki (reported value) for this compound: c1ccc(COc2ccc(C3CNCCS3)cc2)cc1 (racemic)
A: 146

Q: Return Ratio Ki (reported value) for this compound: CCCOc1ccc(C2CNC(=O)CS2)cc1 (racemic)
A: 6

Q: Return Ratio Ki (reported value) for this compound: CCCCOc1ccc(C2CNC(=O)CS2)cc1 (racemic)
A: 318

Q: Return Ratio Ki (reported value) for this compound: COc1ccc(C2CNCCS2)cc1 (racemic)
A: 1.7

Q: Return Ratio Ki (reported value) for this compound: CCOc1ccc(C2CNC(=O)CS2)cc1 (racemic)
A: 3.6

Q: Return Ratio Ki (reported value) for this compound: O=C1CSC(c2ccc(OCc3ccccc3)cc2)CN1 (racemic)
A: 373

Q: Return Ratio Ki (reported value) for this compound: CCOc1ccc(C2CNCCS2)cc1 (racemic)
A: 1

Q: Return Ratio Ki (reported value) for this compound: COc1ccc(C2CNC(=O)CS2)cc1 (racemic)
A: 0.68

Q: Return Ratio Ki (reported value) for this compound: c1ccc(C2CNCCS2)cc1 (racemic)
A: 5

Q: Return Ratio Ki (reported value) for this compound: O=C1CSC(c2ccccc2)CN1 (racemic)
A: 1

Q: Return Ratio Ki (reported value) for this compound: CCCOc1ccc(C2CNCCS2)cc1 (racemic)
A: 4

---

Kindly supply the reported pKi values for the records listed here.
# subject.of.test: Amine oxidase [flavin-containing] B (Homo sapiens)
# Sequence (P27338 whole entry): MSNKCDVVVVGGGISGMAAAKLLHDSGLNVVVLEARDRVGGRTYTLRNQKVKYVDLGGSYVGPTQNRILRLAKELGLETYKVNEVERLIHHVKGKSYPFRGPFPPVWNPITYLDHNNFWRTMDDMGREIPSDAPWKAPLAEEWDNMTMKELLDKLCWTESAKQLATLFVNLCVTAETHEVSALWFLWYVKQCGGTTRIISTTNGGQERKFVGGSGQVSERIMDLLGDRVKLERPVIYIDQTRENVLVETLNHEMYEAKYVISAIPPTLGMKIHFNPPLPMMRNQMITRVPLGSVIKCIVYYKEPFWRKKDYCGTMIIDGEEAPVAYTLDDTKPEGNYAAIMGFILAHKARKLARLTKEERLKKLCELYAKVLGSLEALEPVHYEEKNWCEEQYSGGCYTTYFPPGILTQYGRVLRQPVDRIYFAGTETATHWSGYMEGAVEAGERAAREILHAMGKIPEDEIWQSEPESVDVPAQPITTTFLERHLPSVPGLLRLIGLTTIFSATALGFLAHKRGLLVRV
# experiment.description: Inhibition of human recombinant MAOB by spectrophotometrically
// pKi: -log10(molar conc.)

Q: Return pKi (reported value) for this compound: C[C@H](N)Cc1ccccc1
A: 3.55

Q: Return pKi (reported value) for this compound: c1ccc(COc2ccc(C3CNCCS3)cc2)cc1 (racemic)
A: 7.42

Q: Return pKi (reported value) for this compound: CCOc1ccc(C2CNCCS2)cc1 (racemic)
A: 5.68

Q: Return pKi (reported value) for this compound: CCCCOc1ccc(C2CNC(=O)CS2)cc1 (racemic)
A: 6.34

Q: Return pKi (reported value) for this compound: O=C1CSC(c2ccc(OCc3ccccc3)cc2)CN1 (racemic)
A: 7.32

Q: Return pKi (reported value) for this compound: CCCOc1ccc(C2CNC(=O)CS2)cc1 (racemic)
A: 5.62

Q: Return pKi (reported value) for this compound: CCCOc1ccc(C2CNCCS2)cc1 (racemic)
A: 6.89

Q: Return pKi (reported value) for this compound: CCCCOc1ccc(C2CNCCS2)cc1 (racemic)
A: 7.17

Q: Return pKi (reported value) for this compound: CCOc1ccc(C2CNC(=O)CS2)cc1 (racemic)
A: 4.77

---

# subject.of.test: Amine oxidase [flavin-containing] A (Rattus norvegicus, UniProt P21396)
# Sequence (P21396 whole entry): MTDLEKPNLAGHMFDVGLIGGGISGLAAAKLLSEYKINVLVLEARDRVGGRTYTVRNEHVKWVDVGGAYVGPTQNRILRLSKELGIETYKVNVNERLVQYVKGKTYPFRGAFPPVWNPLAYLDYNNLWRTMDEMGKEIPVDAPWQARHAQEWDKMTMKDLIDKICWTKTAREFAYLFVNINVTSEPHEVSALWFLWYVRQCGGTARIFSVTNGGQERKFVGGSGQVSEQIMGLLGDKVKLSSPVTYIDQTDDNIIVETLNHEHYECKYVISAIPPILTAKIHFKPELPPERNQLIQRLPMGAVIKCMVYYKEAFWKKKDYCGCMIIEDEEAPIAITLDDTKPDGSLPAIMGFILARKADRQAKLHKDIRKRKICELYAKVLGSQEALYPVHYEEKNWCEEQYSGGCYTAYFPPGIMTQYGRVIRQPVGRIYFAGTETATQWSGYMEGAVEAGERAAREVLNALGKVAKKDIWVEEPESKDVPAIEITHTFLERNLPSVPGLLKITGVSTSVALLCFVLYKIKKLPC
Output Condition met for records whose Ki is lower than 10 µM, Condition not met for records at or above 10 µM.

Q: Bench note: check whether CCOc1ccc(C2CNCCS2)cc1 (racemic) shows Ki below 10 µM
A: Condition met

Q: Bench note: check whether CCOc1ccc(C2CNC(=O)CS2)cc1 (racemic) shows Ki below 10 µM
A: Condition not met

Q: Bench note: check whether COc1ccc(C2CNCCS2)cc1 (racemic) shows Ki below 10 µM
A: Condition met

Q: Bench note: check whether O=C1CSC(c2ccccc2)CN1 (racemic) shows Ki below 10 µM
A: Condition met

Q: Bench note: check whether c1ccc(C2CNCCS2)cc1 (racemic) shows Ki below 10 µM
A: Condition not met

Q: Bench note: check whether COc1ccc(C2CNC(=O)CS2)cc1 (racemic) shows Ki below 10 µM
A: Condition met

Q: Bench note: check whether C[C@H](N)Cc1ccccc1 shows Ki below 10 µM
A: Condition not met

Q: Bench note: check whether CCCOc1ccc(C2CNCCS2)cc1 (racemic) shows Ki below 10 µM
A: Condition met

Q: Bench note: check whether CCCCOc1ccc(C2CNCCS2)cc1 (racemic) shows Ki below 10 µM
A: Condition not met

Q: Bench note: check whether c1ccc(COc2ccc(C3CNCCS3)cc2)cc1 (racemic) shows Ki below 10 µM
A: Condition not met
